For each of the compounds below, state its Tmax.
- ASSAY_COMMENT: Maximum time was determined in mice at a single subcutaneous administration of 40 mg/kg (n=4)
- Assay type: ADME, organism-based
- Design: dose 40 mg/kg, route subcutaneous
- SETUP_CONDITIONS: mouse, in vivo, sc
One number for each entry, in min.

- COMPOUND: "CC(=O)O[C@H]1CN(C(=O)[C@@H]2C[C@H](SC3=C(C(=O)O)N4C(=O)[C@H]([C@@H](C)O)[C@H]4[C@H]3C)CN2)C[C@@H]1OC(C)=O (stereo in doubt; 1a)"
  RESULT_UNIT: "min"
  Tmax: 10.2

Okay, next one:
Incoming: Please list Tmax recorded for the compound C[C@@H](O)[C@H]1C(=O)N2C(C(=O)O)=C(S[C@@H]3CN[C@H](C(=O)N(C)C)C3)[C@H](C)[C@H]12 [MEROPENEM]
Outgoing: 10.2

----------
- Test system: Klebsiella aerogenes
- ASSAY_COMMENT: In vitro antibacterial activity against Klebsiella aerogenes 1522E
- Assay type: functional
- SETUP_CONDITIONS: Klebsiella aerogenes; read-out: MIC
MEASURED_PARAMETER: MIC (µg/mL)
Give bare numbers, in µg/mL.

Below: 3 compounds and their reported MIC.
- COMPOUND: "CC(=O)O[C@H]1CN(C(=O)[C@@H]2C[C@H](SC3=C(C(=O)O)N4C(=O)[C@H]([C@@H](C)O)[C@H]4[C@H]3C)CN2)C[C@@H]1OC(C)=O (stereo in doubt; 1a)"
  MIC, µg/mL: 0.049
- COMPOUND: "C[C@@H](O)[C@H]1C(=O)N2C(C(=O)O)=C(S[C@@H]3CN[C@H](C(=O)N4C[C@H](OC(N)=O)[C@@H](OC(N)=O)C4)C3)[C@H](C)[C@H]12"
  MIC, µg/mL: 0.049
- COMPOUND: "C[C@@H](O)[C@H]1C(=O)N2C(C(=O)O)=C(S[C@@H]3CN[C@H](C(=O)N(C)C)C3)[C@H](C)[C@H]12 [MEROPENEM]"
  MIC, µg/mL: 0.049

Take each entry in turn and give its MIC.
1. CC(=O)O[C@@H]1CN(C(=O)[C@@H]2C[C@H](SC3=C(C(=O)O)N4C(=O)[C@H]([C@@H](C)O)[C@H]4[C@H]3C)CN2)C[C@H]1OC(C)=O
2. C[C@@H](O)[C@H]1C(=O)N2C(C(=O)O)=C(S[C@H]3CN[C@H](C(=O)N4C[C@@H](O)[C@H](O)C4)C3)[C@H](C)[C@H]12
3. C[C@@H](O)[C@H]1C(=O)N2C(C(=O)O)=C(S[C@H]3CN[C@H](C(=O)N4C[C@H](O)[C@@H](O)C4)C3)[C@H](C)[C@H]12
4. C[C@@H](O)[C@H]1C(=O)N2C(C(=O)O)=C(SCCNC=N)C[C@H]12 [IMIPENEM ANHYDROUS]

Outgoing:
[0.049, 0.195, 0.195, 0.391]

----------
- Tested on: Escherichia coli
- ASSAY_COMMENT: In vitro antibacterial activity against Escherichia coli 1507E
- Assay type: functional
MEASURED_PARAMETER: MIC (µg/mL)
One number for each entry, in µg/mL.

Take each entry in turn and give its MIC.
1. C[C@@H](O)[C@H]1C(=O)N2C(C(=O)O)=C(S[C@@H]3CN[C@H](C(=O)N(C)C)C3)[C@H](C)[C@H]12 [MEROPENEM]
2. C[C@@H](O)[C@H]1C(=O)N2C(C(=O)O)=C(S[C@@H]3CN[C@H](C(=O)N4C[C@H](OC(N)=O)[C@@H](OC(N)=O)C4)C3)[C@H](C)[C@H]12
3. C[C@@H](O)[C@H]1C(=O)N2C(C(=O)O)=C(S[C@H]3CN[C@H](C(=O)N4C[C@H](O)[C@@H](O)C4)C3)[C@H](C)[C@H]12
4. CC(=O)O[C@@H]1CN(C(=O)[C@@H]2C[C@H](SC3=C(C(=O)O)N4C(=O)[C@H]([C@@H](C)O)[C@H]4[C@H]3C)CN2)C[C@H]1OC(C)=O

Outgoing:
0.025
0.025
0.098
0.025

Take each entry in turn and give its MIC.
1. CC(=O)O[C@H]1CN(C(=O)[C@@H]2C[C@H](SC3=C(C(=O)O)N4C(=O)[C@H]([C@@H](C)O)[C@H]4[C@H]3C)CN2)C[C@@H]1OC(C)=O (stereo in doubt; 1a)
2. C[C@@H](O)[C@H]1C(=O)N2C(C(=O)O)=C(S[C@H]3CN[C@H](C(=O)N4C[C@@H](O)[C@H](O)C4)C3)[C@H](C)[C@H]12
3. C[C@@H](O)[C@H]1C(=O)N2C(C(=O)O)=C(SCCNC=N)C[C@H]12 [IMIPENEM ANHYDROUS]

Outgoing:
1. 0.025
2. 0.195
3. 0.195
